system_tested: human VR1 (Homo sapiens)
Sequence (Q8NER1 whole entry): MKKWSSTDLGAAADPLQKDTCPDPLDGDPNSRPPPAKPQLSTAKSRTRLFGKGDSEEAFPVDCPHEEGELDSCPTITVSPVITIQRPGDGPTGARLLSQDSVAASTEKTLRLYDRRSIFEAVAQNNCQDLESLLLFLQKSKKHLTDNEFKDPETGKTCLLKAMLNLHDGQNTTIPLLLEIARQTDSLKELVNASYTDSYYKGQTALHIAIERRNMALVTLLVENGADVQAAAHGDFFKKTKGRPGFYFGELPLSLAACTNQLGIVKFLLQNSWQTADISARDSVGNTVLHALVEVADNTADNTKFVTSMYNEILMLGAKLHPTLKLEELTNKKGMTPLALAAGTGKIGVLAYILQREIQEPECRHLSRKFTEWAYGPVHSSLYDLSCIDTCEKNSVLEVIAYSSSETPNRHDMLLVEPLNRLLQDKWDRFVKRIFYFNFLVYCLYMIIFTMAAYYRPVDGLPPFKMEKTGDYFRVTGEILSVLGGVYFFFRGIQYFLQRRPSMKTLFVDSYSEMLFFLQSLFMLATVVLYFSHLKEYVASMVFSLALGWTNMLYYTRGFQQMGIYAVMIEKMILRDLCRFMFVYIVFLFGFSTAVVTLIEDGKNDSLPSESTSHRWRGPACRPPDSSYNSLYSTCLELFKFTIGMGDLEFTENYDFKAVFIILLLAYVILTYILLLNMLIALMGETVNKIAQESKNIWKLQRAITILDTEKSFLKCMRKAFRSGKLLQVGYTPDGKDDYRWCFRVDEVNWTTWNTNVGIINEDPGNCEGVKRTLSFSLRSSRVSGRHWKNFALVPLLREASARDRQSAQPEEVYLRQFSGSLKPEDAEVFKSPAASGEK
experiment_summary: Acid stimulation assay (acid-induced intracellular calcium change, FDSS 6000)
Assay type: cell-based
condition_details: final assay buffer pH5.8, 15 min pre-incubation, read-out: IC50 (nM) Low pH
Each entry below lists one item and its recorded log10(IC50) value.
Hey, these are logged values: log10 of IC50, nM being the unit before logging.

Look over these answered cases.
Cc1cc([C@@H](C)NC(=O)c2ccc3cc(C4CC4)ccc3c2)c(Cl)cc1NS(C)(=O)=O = 1.34
Cc1cc([C@@H](C)NC(=O)c2ccc3cc(C4(C)CC4)ccc3c2)ncc1NS(C)(=O)=O = 0.85
Cc1cc([C@@H](C)NC(=O)c2ccc3nc(C(F)(F)F)nc(N4CCN(c5cccc(Cl)c5)CC4)c3c2)c(F)cc1NS(C)(=O)=O = 1.78
Cc1cc([C@@H](C)NC(=O)c2ccc3nc(C(F)(F)F)cc(N4CC(F)(F)C4)c3c2)c(F)cc1NS(C)(=O)=O = 1.38
Cc1cc([C@@H](C)NC(=O)c2ccc3cc(C(C)(C)C)ccc3c2)ncc1NS(C)(=O)=O = 1.49

# input Find the recorded log10(IC50) belonging to "CC(=O)c1ccc2nc(C(=O)N[C@H](C)c3ccc(NS(C)(=O)=O)c(C)c3)ccc2c1" and report it.
# output 2.27

# input Find the recorded log10(IC50) belonging to "Cc1cc([C@@H](C)NC(=O)c2ccc3nc(C(F)(F)F)nc(N4CCCCC4)c3c2)c(F)cc1NS(C)(=O)=O" and report it.
# output 1.71

# input Find the recorded log10(IC50) belonging to "Cc1cc([C@@H](C)NC(=O)c2ccc3nc(N4CCC(C)(C)CC4)ccc3c2)c(F)cc1NS(C)(=O)=O" and report it.
# output 2.17
